This collection of values is drawn from patent US20240391896A1.

# Tested on: HCT116 cells
# protocol: CCK8 cell viability assay in HCT116 cells
# Format: cell-based
# condition_label: Homo sapiens, HCT-116; Table 2, HCT116 cells, 24 hours
pIC50: −log10 of the molar value.
property_label: pIC50

Some entries whose results are on file:
- CC(C)(Oc1cccc(N2CCC[C@@H](C(=O)N(Cc3ccc(-c4ccccc4)c(Cl)c3)C3CC3)C2)c1)C(=O)N1CCNCC1: 4.30 to 5.00
- CC(C)(Oc1cccc(N2CCC[C@@H](C(=O)N(Cc3ccc(-c4c[nH]c5ncccc45)cc3)C3CC3)C2)c1Cl)C(=O)N1CCNCC1: 4.70 to 5.00
- CC(C)(Oc1ccc(Cl)c(N2CCC[C@@H](C(=O)N(Cc3ccc(-c4c[nH]c5ncccc45)cc3)C3CC3)C2)c1)C(=O)N1CCNCC1: 4.70 to 5.00

// moving on: another record for pIC50
Any idea what pIC50 came out for CC(C)(Oc1cccc(N2CCC[C@@H](C(=O)N(Cc3ccc(C4=CCCCC4)c(Cl)c3)C3CC3)C2)c1)C(=O)N1CCNCC1 on HCT116 cells?
4.30 to 5.00

###

# Test system: HCT116 cells
# protocol: CCK8 cell viability assay in HCT116 cells
# Format: cell-based
# condition_label: Homo sapiens, HCT-116; Table 2, HCT116 cells, 24 hours
Form field: pIC50 (one value per entry).
To interpret pIC50, take it as minus log10 of a concentration measured in moles per litre.

Some entries whose results are on file:
* CN(c1cccc(N2CCC[C@@H](C(=O)N(Cc3ccc(-c4cn[nH]c4)cc3)C3CC3)C2)c1)C(C)(C)C(=O)N1CCNCC1 [Compound 16] | 5.55
* CC(C)(Oc1cccc(N2CCC[C@@H](NC(=O)N(Cc3ccc(-c4cn[nH]c4)cc3)C3CC3)C2)c1)C(=O)N1CCNCC1 [Compound 17] | 5.74

// moving on: another record for pIC50
Any idea what pIC50 came out for CC(C)(Oc1cccc(N2CCC[C@@H](NC(=O)N(Cc3ccc(-c4cn[nH]c4)cc3)C3CC3)C2)c1)C(=O)NCCCN [Compound 19] on HCT116 cells?
5.49

###

# System: Human AXIN2
# protocol: qPCR of AXIN2 expression in HCT116 cells
# Type: cell-based
# condition_label: HCT-116, Table 2, HCT116 cells, AXIN2 vs β-actin, 24 hours
pIC50: −log10 of the molar value.
Form field: pIC50 (one value per entry).

Some entries whose results are on file:
* CC(C)(Oc1cccc(N2CC(C(=O)N(Cc3ccc(-c4cn[nH]c4)cc3)C3CC3)CC(C3CCCCC3)C2)c1)C(=O)N1CCNCC1 (stereo not drawn) | 4.30 to 5.00
* CC(C)(Oc1ccc(Cl)c(N2CCC[C@@H](C(=O)N(Cc3ccc(-c4cn[nH]c4)cc3)C3CC3)C2)c1)C(=O)N1CCNCC1 | 4.30 to 5.00

// moving on: another record for pIC50
Fill blank: measured pIC50 of the compound CC(C)(Oc1cccc(N2CC(C(=O)N(Cc3ccc(C4=CCCCC4)cc3)C3CC3)CC(c3ccccc3)C2)c1)C(=O)N1CCNCC1 (racemic) is ____.
4.70 to 5.00

###

# tested_on: BCL9/β-catenin (Homo sapiens, UniProt P35222)
# Sequence (P35222 whole entry): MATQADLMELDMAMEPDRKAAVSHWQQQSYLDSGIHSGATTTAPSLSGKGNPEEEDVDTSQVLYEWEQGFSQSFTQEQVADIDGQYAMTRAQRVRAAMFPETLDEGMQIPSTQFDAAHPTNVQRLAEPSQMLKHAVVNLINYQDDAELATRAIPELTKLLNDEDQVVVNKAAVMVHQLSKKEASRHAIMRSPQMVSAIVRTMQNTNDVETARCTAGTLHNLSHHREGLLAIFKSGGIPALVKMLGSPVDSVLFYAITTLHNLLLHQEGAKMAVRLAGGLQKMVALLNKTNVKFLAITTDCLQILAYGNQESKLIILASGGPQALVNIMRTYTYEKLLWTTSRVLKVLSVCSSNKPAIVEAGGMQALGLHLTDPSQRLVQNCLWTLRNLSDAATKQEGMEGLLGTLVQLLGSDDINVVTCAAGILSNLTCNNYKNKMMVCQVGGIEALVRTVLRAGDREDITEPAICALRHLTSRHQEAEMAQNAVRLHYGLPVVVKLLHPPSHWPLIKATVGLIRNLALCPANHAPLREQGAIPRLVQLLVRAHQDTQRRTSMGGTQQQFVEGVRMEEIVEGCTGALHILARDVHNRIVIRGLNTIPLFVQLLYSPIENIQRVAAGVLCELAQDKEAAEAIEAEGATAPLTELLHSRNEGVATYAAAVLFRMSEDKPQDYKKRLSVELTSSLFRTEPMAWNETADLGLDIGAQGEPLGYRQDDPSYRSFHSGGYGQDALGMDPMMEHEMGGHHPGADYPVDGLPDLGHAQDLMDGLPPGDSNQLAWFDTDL
# protocol: FP (BCL-9 avidity) fluorescence polarization competition assay with beta-catenin and FAP-Bcl9 tracer
# Assay type: binding
# condition_label: Table 2, FP (BCL-9 affinity); read-out: FP
pIC50: −log10 of the molar value.
property_label: pIC50

* CC(C)(Nc1cccc(N2CCC[C@@H](C(=O)N(Cc3ccc(-c4cn[nH]c4)cc3)C3CC3)C2)c1)C(=O)N1CCNCC1 | 4.70 to 5.00

Any idea what pIC50 came out for CC(C)(Oc1cccc(N2CC(C(=O)N(Cc3ccc(-c4cn[nH]c4)cc3)C3CC3)CC(C3CCCCC3)C2)c1)C(=O)N1CCNCC1 (centres unmarked) on BCL9/β-catenin (Homo sapiens, UniProt P35222)?
4.30 to 5.00

Any idea what pIC50 came out for CC(C)(Oc1cccc(N2CCC[C@@H](C(=O)N(Cc3ccc(-c4c[nH]c5ncccc45)cc3)C3CC3)C2)c1Cl)C(=O)N1CCNCC1 on BCL9/β-catenin (Homo sapiens, UniProt P35222)?
4.30 to 5.00

Any idea what pIC50 came out for CC(C)(Oc1ccc(Cl)c(N2CCC[C@@H](C(=O)N(Cc3ccc(-c4c[nH]c5ncccc45)cc3)C3CC3)C2)c1)C(=O)N1CCNCC1 on BCL9/β-catenin (Homo sapiens, UniProt P35222)?
5.61

Any idea what pIC50 came out for CC(C)(Oc1cccc(N2CC(C(=O)N(Cc3ccc(-c4cn[nH]c4)cc3)C3CC3)CC(c3ccccc3)C2)c1)C(=O)N1CCNCC1 (centres unmarked) on BCL9/β-catenin (Homo sapiens, UniProt P35222)?
4.30 to 5.00

###

# tested_on: BCL9/β-catenin (Homo sapiens, UniProt P35222)
# protocol: FP (BCL-9 avidity) fluorescence polarization competition assay with beta-catenin and FAP-Bcl9 tracer
# Type: binding
# condition_label: Table 1.2, compounds 7-16; read-out: BCL-9 avidity FP IC50
Form field: IC50 (one value per entry).

• CC(C)(Oc1cccc(N2CCC[C@@H](C(=O)N(Cc3ccc(-c4c[nH]c5ncccc45)cc3)C3CC3)C2)c1Cl)C(=O)N1CCNCC1 [Compound 8] = > 10 µM
• CC(C)(Oc1ccc(Cl)c(N2CCC[C@@H](C(=O)N(Cc3ccc(-c4cn[nH]c4)cc3)C3CC3)C2)c1)C(=O)N1CCNCC1 [Compound 9] = > 10 µM

// moving on: another record for IC50
Fill blank: measured IC50 of the compound CC(C)(Oc1cccc(N2CCC[C@@H](C(=O)N(Cc3ccc(-c4cn[nH]c4)c(Cl)c3)C3CC3)C2)c1)C(=O)N1CCNCC1 [Compound 12] is ____.
> 10 µM

###

# System: HCT116 cells
# protocol: CCK8 cell viability assay in HCT116 cells
# Type: cell-based
# condition_label: Homo sapiens, HCT-116; Table 2, HCT116 cells, 24 hours
# Description: • 1. HCT116 cell plating Digesting, counting, and plating the cells in 96-well plates (flat bottom, transparent) with 10,000 cells/100 ul DMEM (10% FBS) per well; • 2. […] Measuring the absorbance at 450 nm and 600 nm (excluding the interference of the background color of the reagent and the absorbance value of the well plate itself); • 9. Using OD450 nm-OD600 nm for the final absorbance, and calculating the inhibition rate: […]
pIC50: −log10 of the molar value.
Form field: pIC50 (one value per entry).

• CC(C)(Oc1ccc(Cl)c(N2CCC[C@@H](C(=O)N(Cc3ccc(-c4cn[nH]c4)cc3)C3CC3)C2)c1)C(=O)N1CCNCC1 = 4.30 to 5.00

Fill blank: measured pIC50 of the compound CC(C)(Oc1cccc(N2CC(C(=O)N(Cc3ccc(-c4c[nH]c5ncccc45)cc3)C3CC3)CC(c3ccccc3)C2)c1)C(=O)N1CCNCC1 (racemic) is ____.
4.70 to 5.00

Fill blank: measured pIC50 of the compound CC(C)(Oc1ccc(Cl)c(N2CCC[C@@H](C(=O)N(Cc3ccc(C4=CCCCC4)cc3)C3CC3)C2)c1)C(=O)N1CCNCC1 is ____.
4.70 to 5.00
